The reported measurements were obtained from patent US8546380B2.

Consider the following compounds; for each one, report its melting point.

Query :: Given the entry CC1(c2cc(NC(=O)c3ccc(Cl)cn3)cc(C(=O)Nc3ccccc3)c2)CCSC(N)=N1 (centres unmarked) , report its measured melting point.
Result :: 263 to 266 °C

Query :: Given the entry CC1(c2cccc(NC(=O)c3ccc(C#N)cn3)c2)CCSC(N)=N1 (centres unmarked) , report its measured melting point.
Result :: 193 to 196 °C

Query :: Given the entry CC1(c2ccc(F)c(C(=O)Nc3ccc(Cl)cn3)c2)CCSC(N)=N1 (centres unmarked) , report its measured melting point.
Result :: 195 to 198 °C

Query :: Given the entry CC1(c2ccccc2)CCN=C(N)O1.Cl (centres unmarked) , report its measured melting point.
Result :: 205 to 206 °C

Query :: Given the entry CC1(c2ccc(Oc3ccc(Br)cc3)cc2)CCSC(N)=N1 (centres unmarked) , report its measured melting point.
Result :: 166 to 168 °C

Query :: Given the entry CCN(C(=O)c1ccco1)c1cccc(C2(C)CCSC(N)=N2)c1.Cl (centres unmarked) , report its measured melting point.
Result :: 262 to 267 °C

Query :: Given the entry CC1(c2cccc(Br)c2)CCSC(N)=N1.Cl (centres unmarked) , report its measured melting point.
Result :: 217 to 218 °C

Query :: Given the entry CC1(c2ccc3c(c2)NC(=O)CO3)CCSC(N)=N1 (centres unmarked) , report its measured melting point.
Result :: 240 to 244 °C (dec.)

Query :: Given the entry CC1(c2cccc(NC(=O)c3ncc(Cl)cn3)c2)CCSC(N)=N1 (centres unmarked) , report its measured melting point.
Result :: 204 to 206 °C

Query :: Given the entry CC1(c2cccc(NC(=O)c3ccc(C(F)(F)F)cc3)c2)CCSC(N)=N1 (centres unmarked) , report its measured melting point.
Result :: 182 to 184 °C

Query :: Given the entry Cc1ccc(C2(C)CCSC(N)=N2)cc1 (centres unmarked) , report its measured melting point.
Result :: 147 to 148 °C

Query :: Given the entry CC(C)(C)c1cccc(Oc2ccc(C3(C)CCSC(N)=N3)cc2)c1 (centres unmarked) , report its measured melting point.
Result :: 106 to 107 °C

Query :: Given the entry CO/N=C/c1cccc(C2(C)CCSC(N)=N2)c1 (centres unmarked) , report its measured melting point.
Result :: 135 to 136 °C

Query :: Given the entry CC1(c2ccc3c(c2)CCCC3)CCSC(N)=N1 (centres unmarked) , report its measured melting point.
Result :: 147 to 148 °C

Query :: Given the entry CC(C)Oc1cc(NC(=O)c2ccc(Cl)cn2)cc(C2(C)CCSC(N)=N2)c1.Cl (centres unmarked) , report its measured melting point.
Result :: 255 to 260 °C (dec.)

Query :: Given the entry CC1(c2ccc(-c3ccccc3)cc2)CCSC(N)=N1 (centres unmarked) , report its measured melting point.
Result :: 194 to 195 °C

Query :: Given the entry CC1(c2cc(Br)cc(NC(=O)c3ccno3)c2)CCSC(N)=N1.Cl (centres unmarked) , report its measured melting point.
Result :: 175 to 180 °C (dec.)

Query :: Given the entry CC1(C)CCC(C)(C)c2cc(C3(C)CCSC(N)=N3)ccc21 (centres unmarked) , report its measured melting point.
Result :: 180 to 181 °C

Query :: Given the entry CC1(c2cccc(CN3CCOCC3)c2)CCSC(N)=N1 (centres unmarked) , report its measured melting point.
Result :: 161 to 162 °C

Query :: Given the entry CC(C)c1ccc(C(=O)Nc2cccc(C3(C)CCSC(N)=N3)c2)nc1 (centres unmarked) , report its measured melting point.
Result :: 191 to 193 °C
